B1: glmS ribozyme (parent)
chain: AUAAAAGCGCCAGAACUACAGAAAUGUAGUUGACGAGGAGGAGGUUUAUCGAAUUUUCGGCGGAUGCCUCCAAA

- Variants of: B1
- test-protocol: self-cleavage kobs at 2500 uM GlcN6P; higher = faster cleavage; RNA array
- test-settings: with glucosamine-6-phosphate
Variants at the floor of the assay were thinned out.
assay-readout: self-cleavage kobs at 2500 uM GlcN6P

>>> experimental_value("G7A U30G G32A A39G")
"< 1e-05 s⁻¹"
>>> experimental_value("A6U C11A A12U C34G C50U U55G")
"< 1e-05 s⁻¹"
>>> experimental_value("C8U A36C A48G U49C")
"< 1e-05 s⁻¹"
>>> experimental_value("A12U A14U G29C U49A")
"< 1e-05 s⁻¹"
>>> experimental_value("G9C U45G")
"< 1e-05 s⁻¹"
>>> experimental_value("G37A G41C C50U U65G")
"< 1e-05 s⁻¹"
>>> experimental_value("G7A C16G A48U G60C C70A")
"< 1e-05 s⁻¹"
>>> experimental_value("G44U U47C A48C U69G")
"< 1e-05 s⁻¹"
>>> experimental_value("C11G G29C A52G U55A C58A")
"< 1e-05 s⁻¹"
>>> experimental_value("G7C C34G")
"< 1e-05 s⁻¹"
>>> experimental_value("A15C U49C")
"< 1e-05 s⁻¹"
>>> experimental_value("A14G G37U G44U")
"< 1e-05 s⁻¹"
>>> experimental_value("G35U C58G A64U")
"< 1e-05 s⁻¹"
>>> experimental_value("A6C U49G G62A A64G")
"< 1e-05 s⁻¹"
>>> experimental_value("C11A U54A U56A G59U")
"0.00154 s⁻¹"
>>> experimental_value("A14C U55A U56G")
"0.0295 s⁻¹"
>>> experimental_value("A12G A14C A53U A64C")
"< 1e-05 s⁻¹"
>>> experimental_value("U54C U55C")
"0.00663 s⁻¹"
>>> experimental_value("C11U A39G G43U C58G C70A")
"< 1e-05 s⁻¹"
>>> experimental_value("A42C G59C C67G")
"< 1e-05 s⁻¹"
>>> experimental_value("C8A A33U")
"< 1e-05 s⁻¹"
>>> experimental_value("A6U A15C U55A G66U")
"< 1e-05 s⁻¹"
>>> experimental_value("A33U C50U")
"< 1e-05 s⁻¹"
>>> experimental_value("C50G U56G G59U")
"8.66e-05 s⁻¹"
>>> experimental_value("C11A C58U C68A")
"7.25e-05 s⁻¹"
>>> experimental_value("G41A U46A G66A")
"9.01e-05 s⁻¹"
>>> experimental_value("A15U U45C")
"0.000187 s⁻¹"
>>> experimental_value("C8A A33C G40A U47G")
"< 1e-05 s⁻¹"
>>> experimental_value("A39U C71A")
"0.00175 s⁻¹"
>>> experimental_value("C11U A12G A15U")
"0.000175 s⁻¹"
>>> experimental_value("A12G G66A")
"0.000195 s⁻¹"
>>> experimental_value("A15U U45A U65G")
"0.00134 s⁻¹"
>>> experimental_value("U46G G59C C68U C70A")
"< 1e-05 s⁻¹"
>>> experimental_value("U46A U56G C58U G59U")
"< 1e-05 s⁻¹"
>>> experimental_value("G9C U45A C68A")
"< 1e-05 s⁻¹"
>>> experimental_value("G63C")
"< 1e-05 s⁻¹"
>>> experimental_value("A42U U49G U57A C61G")
"< 1e-05 s⁻¹"
>>> experimental_value("U45G U56G")
"0.0033 s⁻¹"
>>> experimental_value("C8A G59C")
"< 1e-05 s⁻¹"
>>> experimental_value("C11U U55G C70A")
"0.000101 s⁻¹"
>>> experimental_value("A53U A64C")
"9.3e-05 s⁻¹"
>>> experimental_value("A15C A39C")
"0.000622 s⁻¹"
>>> experimental_value("A39C U49G")
"4.21e-05 s⁻¹"
>>> experimental_value("A42U A53G C61A C67G")
"< 1e-05 s⁻¹"
>>> experimental_value("C8A U56A")
"< 1e-05 s⁻¹"
>>> experimental_value("U30C G37U C58A C68G")
"0.000165 s⁻¹"
>>> experimental_value("G43A U55C G59U C67G")
"< 1e-05 s⁻¹"
